Reference source: paper PMC5540273

# %Inh values compiled below
system: ARK5; construct: gene NUAK1; conditions: concentration: 1 μM, replicates: in singlicate; n = 1;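 further: KINOMEscan kinase panel screen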
metric-name: %Inh (%)

[
  {
    "compound": "Fc1ccc(Nc2nccc(-c3c(-c4ccc(Cl)cc4)nn4ncccc34)n2)cc1F [GW829058]",
    "measured-on": "ARK5",
    "observed-value": 0
  },
  {
    "compound": "Clc1cc(Nc2ncnc3cc[nH]c23)ccc1OCc1ccccn1",
    "measured-on": "ARK5",
    "observed-value": 0
  },
  {
    "compound": "FC(F)(F)c1ccc(-c2nn3ncccc3c2-c2ccnc(Nc3cccc(C(F)(F)F)c3)n2)cc1 [GW828205]",
    "measured-on": "ARK5",
    "observed-value": 6
  },
  {
    "compound": "COc1ccc(Nc2nccc(N3CCC(NC(=O)c4cccc(NC(C)=O)c4)C3)n2)cc1 (stereo not drawn) [GSK1379732]",
    "measured-on": "ARK5",
    "observed-value": 9
  },
  {
    "compound": "Nc1nc(-c2cccnc2)c(-c2ccnc3ccccc23)s1 [GW684083]",
    "measured-on": "ARK5",
    "observed-value": 0
  },
  {
    "compound": "Nc1nc(-c2ccccn2)c(-c2ccnc3ccccc23)s1 [GW548057]",
    "measured-on": "ARK5",
    "observed-value": 24
  },
  {
    "compound": "Cl.c1ccc(Cn2ncc3cc(Nc4ncnc5ccccc45)ccc32)cc1 [GW273749]",
    "measured-on": "ARK5",
    "observed-value": 0
  },
  {
    "compound": "CNc1nccc(-c2c(-c3ccc(F)cc3)ncn2C2CCN(C)CC2)n1 [SB-222903]",
    "measured-on": "ARK5",
    "observed-value": 4
  },
  {
    "compound": "C[C@H]1CC[C@@H](C(=O)Nc2ccccc2)CN1c1cc(-c2ccc3c(N)n[nH]c3c2)nc(N)n1 [GSK2283293]",
    "measured-on": "ARK5",
    "observed-value": 1
  }
]

---

# %Inh values compiled below
test system: MAP3K4; settings: concentration: 1 μM, replicates: in singlicate; n = 1

[
  {
    "chemical-string": "O=C(c1ccc(-c2cc(-c3c[nH]nc3-c3ccccn3)ccn2)cc1)N1CCCC1",
    "output-unit": "%",
    "%Inh": 25
  },
  {
    "chemical-string": "Nc1nc(-c2cccnc2)c(-c2ccnc3ccccc23)s1",
    "output-unit": "%",
    "%Inh": 0
  },
  {
    "chemical-string": "COc1cc2ncnc(Nc3ccc(OCc4ccccc4Br)c(Cl)c3)c2cc1OC.Cl",
    "output-unit": "%",
    "%Inh": 0
  },
  {
    "chemical-string": "Cc1ccc(NC(=O)c2cccc(C#N)c2)cc1-c1ccc(C(=O)Nc2ccncc2)cc1",
    "output-unit": "%",
    "%Inh": 35
  },
  {
    "chemical-string": "CCc1nc(-c2cccc(C)c2)c(-c2ccnc(NC(=O)c3ccccc3)c2)s1",
    "output-unit": "%",
    "%Inh": 0
  }
]

---

tested on: PRP4; settings: concentration: 1 μM, replicates: in singlicate; n = 1
# %Inh values compiled below

[
  {
    "compound": "O=C(CCO)NCCn1ccc2ncnc(Nc3ccc(Oc4cccc(C(F)(F)F)c4)c(Cl)c3)c21",
    "%Inh [%]": 8
  },
  {
    "compound": "COc1ccc(-c2nc3n(c2-c2ccncc2)CCC3)cc1",
    "%Inh [%]": 13
  },
  {
    "compound": "Cl.Fc1ccccc1COc1ccc(Nc2ncnc3ccc(-c4nnc(C(F)(F)F)o4)cc23)cc1Cl",
    "%Inh [%]": 16
  },
  {
    "compound": "OCCOCCn1ccc2ncnc(Nc3ccc(Oc4cccc(Cl)c4)c(Cl)c3)c21",
    "%Inh [%]": 9
  },
  {
    "compound": "C[C@H]1CC[C@@H](C(=O)Nc2ccccc2)CN1c1cc(-c2ccc3c(N)n[nH]c3c2)nc(N)n1",
    "%Inh [%]": 2
  },
  {
    "compound": "CCn1c(-c2ccncc2)nc2cnccc21",
    "%Inh [%]": 18
  },
  {
    "compound": "COc1ccc(Nc2nccc(N3CCC(NC(=O)Nc4ccc5c(c4)OCO5)C3)n2)cc1 (centres unmarked)",
    "%Inh [%]": 23
  },
  {
    "compound": "CC(C)(C)OC(=O)NC1CCCN(c2cc(-c3ccc4c(N)n[nH]c4c3)nc(N)n2)C1 (centres unmarked)",
    "%Inh [%]": 0
  }
]
